In this section, each of the compounds is paired with its reported inhibition.
- Target Entity: 5-hydroxytryptamine receptor 3A (Homo sapiens) (UniProt P46098)
- Sequence (P46098 whole entry): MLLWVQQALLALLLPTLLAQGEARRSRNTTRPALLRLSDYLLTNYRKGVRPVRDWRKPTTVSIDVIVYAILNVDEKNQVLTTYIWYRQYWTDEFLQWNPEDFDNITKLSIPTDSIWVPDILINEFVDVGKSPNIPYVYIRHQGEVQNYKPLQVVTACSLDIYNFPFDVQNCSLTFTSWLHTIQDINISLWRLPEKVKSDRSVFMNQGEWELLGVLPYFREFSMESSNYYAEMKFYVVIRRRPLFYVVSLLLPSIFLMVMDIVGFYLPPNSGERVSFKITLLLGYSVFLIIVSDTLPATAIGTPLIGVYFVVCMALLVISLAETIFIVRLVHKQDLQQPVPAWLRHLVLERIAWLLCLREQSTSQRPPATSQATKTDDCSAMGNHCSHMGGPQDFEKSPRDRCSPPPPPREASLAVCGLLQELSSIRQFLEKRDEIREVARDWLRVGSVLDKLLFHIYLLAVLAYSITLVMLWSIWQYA
- Experiment Notes: Antagonist activity at human 5HT3A receptor expressed in HEK293 cells assessed as inhibition of serotonin-induced inward Na+ current at >= 10 uM
- Type: functional, cell-based

Examples from the recorded data:
Compound	Target Entity	inhibition
O=C(NCCN1CCOCC1)c1ccc(Cl)cc1	5-hydroxytryptamine receptor 3A (Homo sapiens) (UniProt P46098)	< 50%
NC(=O)N1c2ccccc2C=Cc2ccccc21	5-hydroxytryptamine receptor 3A (Homo sapiens) (UniProt P46098)	< 50%
CCOc1ccccc1O[C@@H](c1ccccc1)[C@@H]1CNCCO1	5-hydroxytryptamine receptor 3A (Homo sapiens) (UniProt P46098)	> 50%
CNCCC(Oc1ccc(C(F)(F)F)cc1)c1ccccc1 (configuration not stated)	5-hydroxytryptamine receptor 3A (Homo sapiens) (UniProt P46098)	> 50%

Task item: Form: Entry = c1ccc2c(c1)CCc1ccccc1C2 | System = 5-hydroxytryptamine receptor 3A (Homo sapiens) (UniProt P46098) | inhibition = ____
Reply: < 50%

Task item: Form: Entry = CSc1ccc2c(c1)N(CCC1CCCCN1C)c1ccccc1S2 (configuration not stated) | System = 5-hydroxytryptamine receptor 3A (Homo sapiens) (UniProt P46098) | inhibition = ____
Reply: > 50%

Task item: Form: Entry = CNCCCN1c2ccccc2CCc2ccccc21 | System = 5-hydroxytryptamine receptor 3A (Homo sapiens) (UniProt P46098) | inhibition = ____
Reply: > 50%

* * *

- Target Entity: 5-hydroxytryptamine receptor 3A (Homo sapiens)
- Experiment Notes: Antagonist activity at human 5HT3A receptor expressed in HEK293 cells assessed as inhibition of serotonin-induced inward Na+ current at >= 10 uM
- Format: functional, cell-based
In this section, each of the compounds is paired with its reported inhibition.

Examples from the recorded data:
Smiles Data	inhibition
c1ccc2c(c1)CCc1ccccc1N2	> 50%
O=C(CCCN1CCC(O)(c2ccc(Cl)cc2)CC1)c1ccc(F)cc1	< 50%
CN(C)CCCN1c2ccccc2CCc2ccccc21	> 50%
COc1ccc2c(c1)N(C[C@H](C)CN(C)C)c1ccccc1S2	< 50%
Cc1nc2n(c(=O)c1CCN1CCC(c3noc4cc(F)ccc34)CC1)CCCC2	< 50%
NC(=O)N1c2ccccc2CCc2ccccc21	< 50%

Read the next record carefully.
Task item: Look at this compound and give its reported inhibition. c1ccc2nc3ccccc3cc2c1
Reply: < 50%

Where these numbers come from: ChEMBL document CHEMBL1158381
